assay-explanation: Acute toxicity in mice (LD50)
Format: in vivo
cond: mouse, in vivo, ip, intraperitoneal, read-out: LD50, intraperitoneal administration
readout-name: LD50

compound | LD50
CC1=C(/C=C/C(C)=C/C=C/C(C)=C\C(=O)Oc2c(C)c(C)c3c(c2C)CCC(C)(CCCC(C)CCCC(C)CCCC(C)C)O3)C(C)(C)CCC1 (stereo not drawn) [α-tocopherol-13-cis-vitamin A acid ester] | > 10000 mg/kg

Problem: Query (compound): CC1=C(/C=C/C(C)=C/C=C/C(C)=C/C(=O)Oc2c(C)c(C)c3c(c2C)CCC(C)(CCCC(C)CCCC(C)CCCC(C)C)O3)C(C)(C)CCC1 (stereo not drawn) [α-tocopherol-trans-vitamin A acid ester] ; field requested: LD50
Solution: > 10000 mg/kg
